Entries with their measured pIC50, system UniProtKB P0DTD1:
Remember the convention: pIC50 equals -log10 of concentration in molar.

Solved entries (count: 5):
>>> df
                                   compound  number
0  CC(C)(C)C[C@H](NC(=O)C[C@@H](c1ccccc1)C(F)(F)F)C(=O)NC(C[C@@H]1CCNC1=O)C(=O)C(=O)NC1CC1 (stereo partly specified)    7.70
1  CCNC(=O)C(=O)C(C[C@@H]1CCNC1=O)NC(=O)[C@H](CC(C)(C)C)NC(=O)/C=C/c1ccc(Cl)cc1Cl (stereo partly specified)    8.00
2  CC[C@H](CC(=O)N[C@@H](CC1CC1)C(=O)NC(C[C@@H]1CCNC1=O)C(=O)C(=O)NC1CC1)c1ccccc1 (stereo partly specified)    7.60
3  NC(=O)C(=O)C(C[C@@H]1CCNC1=O)NC(=O)[C@H](CC1CC1)NC(=O)/C=C/c1ccc(Cl)cc1F (stereo partly specified)    7.89
4  CCNC(=O)C(=O)C(C[C@@H]1CCNC1=O)NC(=O)[C@H](CC1CC1)NC(=O)/C=C/c1ccc(Cl)cc1F (stereo partly specified)    7.89

Q. Looking for the measured pIC50 of CC(C)(C)C[C@H](NC(=O)/C=C/c1ccc(Cl)cc1Cl)C(=O)NC(C[C@@H]1CCNC1=O)C(=O)C(N)=O (stereo partly specified) , can you help?
A. 8.10
